test system: MS2 coat protein; assay: apparent KD of MS2 coat protein; higher = weaker reporter binding; conditions: Eterna round: R107; input ligand: theophylline 2 mM
Below is a list of entries, each paired with its recorded apparent KD of MS2 coat protein value.
For clarity, give the value followed by its unit.

seq	apparent KD of MS2 coat protein
UGUAUGUGAUCUGAUACCAGUCCAACUGGUAAAAUCUGAGGAUCACCCAGGUAAAAUUGGGACCCUUGGCAGCAGAUCGCAUACU	544 nM
GUCUGUGUCUGAAGGAGCGACAUGAGGAUCACCCAUGUCUCCCGUUAUGGGAGUUCCUUAGGUCAGGUAGGUCGCAGACACAGAC [#1 Exclusion - Arginine B Attempt #27 (Inspired by Omei)]	187 nM
AGUCUUGUGGGAAGGAGCGCAUACUUCACAUGAGGAUCACCCAUGUCAAGACGUGAGUCAGUGCAGGUAGGUCGCCUAACUAAGA [Same State - Arginine B (Freestyle 15)]	35.8 nM
GCAUCCUAGUCGGCCGCCACUGCAUGUAGGCAGUGCUGCUACAAACAUGAGGAUCACCCAUGUAGCAGGACCGGGACUAGGAUGC [(Trp1)-(MT2)''-(T1)'-(MT2)'-(Ms2)-(Trp2)_Design2]	15.6 nM
UCCCUACCGUCGGCCGCCACUGGGUCAUACAGUUCGUAACUACAUGAGGAUCACCCAUGUGCAGCCAGGACCGGGACGCGCCUUG [theeternabot_sameState_MS2_Trp_B_16]	148 nM

**Q:** Please give the measured apparent KD of MS2 coat protein for this sequence: CCUAUGCAGUCGGCCGCCACUGAUAACGUUAUCGUUACCUCAGAAACAUGAGGAUCACCCAUGUACAGGACCGGGACUGUAUAGG [Ex Tryptophan B 19]
**A:** 13.2 nM

**Q:** Reported apparent KD of MS2 coat protein for UUCUACGGCGAUCUGGGUUUACCAGAUCGACGAGGACCGGUACGGCCGCCACUCGUGUUUCUUUAACAUGAGGAUCACCCAUGUA [#11 Tryptophan A Same State] : what is it?
**A:** 66.1 nM

**Q:** Look up apparent KD of MS2 coat protein: ACUAGUUGUGCAGAUACCAGACACGAGGAUCACCCGUGUUUGGGAUGUUCGCAUCUUCCUGUCCCUUGGCAGCUGUACAUCUAGA [Omei Theo B Exc v8]
**A:** 221 nM

**Q:** Tell me the measured apparent KD of MS2 coat protein of UCUCACAUGAGGAUCACCCAUGUGUGCGGUCGAGGACCGGUACGGCCGCCACUCGAAUCCUUCCGCGAGAAGAUUGUACGACGGC [theeternabot_sameState_MS2_Trp_A_38] , please.
**A:** 99.9 nM

**Q:** Fill in the blank: the reported apparent KD of MS2 coat protein of UGGUACAUGGCGGCCGCCACUGGGUUGAAAACCUGAGGAUCACCCUGGUAAAACGCGAAAGCGACUAGGACCGGGUCAUGUACCU is ____.
**A:** 787 nM

**Q:** Which apparent KD of MS2 coat protein is reported for this sequence? GCGAUGGAGCGAAGGAGCGGCUAAAUGUAUCACAUGAGGAUCACCCAUGUUCCAGGAUGUGGCCAGGUAGGUCGCGCUCCAUCGC [SSAB NP+V+V2 #16]
**A:** 322 nM

* * *

tested on: MS2 coat protein; test: apparent KD of MS2 coat protein; designed switch direction (-1 OFF switch, 1 ON switch): -1; higher = weaker reporter binding; conditions: Eterna round: R95; input ligand: FMN 200 uM
Measured apparent KD of MS2 coat protein by item
Number in nM, nothing else.

Guide cases for apparent KD of MS2 coat protein, answers given:
seq	recorded_value
AAAUAUAAGCAAAGAUCCUACAUGAGGAUCACCCAUGUGCUCGUCUUAUAAAGUACUAUCACGAAAGUGAUAGUACA [Sensor 3, v1 - 19] (puzzle: Sensor v3, turn-off variant 1)	117
ACAAGCUUUUAGUUCGUCUUAUACACUCCUAAUAAGAAAACAUGAGGAUCACCCAUGUAAGAAAUAAGAACUCAUGU [Sesor Array 2 - Jieux - Sensor v3, turn-off variant 2] (puzzle: Sensor v3, turn-off variant 2)	151

Please find the next sequence below.
**Q:** Record lookup: for MS2 coat protein, what apparent KD of MS2 coat protein belongs to AAUAAACAUGAGGAUCACCCAUGUCAGGAUAUACGAAGAAAGAAAGAAAGAAAGAAGAGUAGAAGGGAUAGGAA [Excls1-III] (puzzle: Exclusion 1) ?
**A:** 31.6

* * *

tested on: K4 kissing-loop RNA reporter; experiment: apparent KD of K4 kissing-loop reporter; higher = weaker reporter binding; details: Eterna round: R107; input ligand: FMN 200 uM
# apparent KD of K4 kissing-loop reporter values compiled below
Lab book: enter the figure in µM, no units written.

**Q:** Form field: reported apparent KD of K4 kissing-loop reporter of GGGCCUCUGGCUGAUACCAGUGAUGCAGGGUCCGAGACAGGGAGUGAUGUUCCCUGCAGCCACCCUUGGCAGCAGUUUAAGUUUG [Exclusion Theophylline B GF 19]
**A:** 0.136

**Q:** Which apparent KD of K4 kissing-loop reporter is reported for this sequence? GGUAGCAUGGCGGCCGCCACUGUCUAGUGAUGUUAGACCCGACGUGGAUUCAAGACAGUCGGAAACAGGACCGGGCCAUGCUACC
**A:** 0.39

**Q:** Look up apparent KD of K4 kissing-loop reporter: UUAGCUCUAUAGAGCAAGAGGUAUACUGAUACCAGAGGCUAUAGCCUCCCUUGGCAGCGGAUCGAGUGAUGUUCGUAACCUCAUU [AK4.5 SS Theophylline A]
**A:** 0.616

**Q:** Bench note: what apparent KD of K4 kissing-loop reporter did CAGUUCUAUUCCGGUAGUGAUGUUACCAAGCGAGGACCGGUACGGCCGCCACUCGAGUGACAGACGUACUGGUAUCACCCGCUUC show?
**A:** 0.159

**Q:** Suppose we examine the sequence UUUGGAUUGCGCGAAGAGUGCAAGCGCCAACGAGGACCGGUACGGCCGCCACUCGCGGAGGAGUCCAGUGAUGUUGGACGGCCCG [Laraones] ; what apparent KD of K4 kissing-loop reporter value has been reported?
**A:** 0.271

**Q:** May I ask what apparent KD of K4 kissing-loop reporter has been recorded for UUGUAAAAGUCGGCCGCCACUCCGGGCCCUAUAAAUGGGCGCAGUGAUGUUGCGGCUAGGCCUCUGAGGACCGGGACUUUAUAGC [Xeismaarbe] ?
**A:** 0.115

**Q:** Query (sequence): AACUUAAUUUAUAAGCAGUGAUGUUGCUUACGAGGACCGGUACGGCCGCCACUCGAUCGCAUUUAUGUCUUCAAUUAAUUCAUUA [JR_ExcTryptoA_Sub016] ; field requested: apparent KD of K4 kissing-loop reporter
**A:** 0.178

**Q:** Given the sequence UUGGAGUGAUGUUCCAUAUCUUGAGCGGAAGGAGCGGCAAAAGUGCCAGGUAGGUCGCCGCAGAAGGUACCAGUGAUGUUGGAAA [Same State Arginine A GF 3] , what is its reported apparent KD of K4 kissing-loop reporter?
**A:** 0.132

**Q:** Recorded apparent KD of K4 kissing-loop reporter for UAGUCCUAGUGAUGGUUAUCACGUGGUGGGCGAGGACCGGUACGGCCGCCACUCGACUUUGCAGUGAUGUUGCAAUCCGGACAAU [Exclusion - Tryptophan A (Freestyle 17)] , please?
**A:** 0.194

**Q:** // query apparent KD of K4 kissing-loop reporter value for entry GGAGAGAACUGAAGGAGCGCCAAGAGAGAAGGAAAUAUAGUGAUGUUAUAUAAGAGAGAGAGGCAGGUAGGUCGCAGAGGGAGGA [#03 K4 Arginine B Exclusion]
**A:** 0.185

**Q:** # get_value(readout='apparent KD of K4 kissing-loop reporter', item= CUCGAGUGAUGUUCGAUUAUUUAUACAGAUACCAGUGAAUUUUAACACCCUUGGCAGCUGGUAGUAUCUUUGUAAUUUUAACUAG [JR_ExcTheophyA_Sub003] )
**A:** 0.133

**Q:** // lookup apparent KD of K4 kissing-loop reporter for GCAGUGAUGUUGCGCAUGUACAGUGGAGUGCGAGGACCGGUACGGCCGCCACUCGUACAGAACAAGCUAAUAUAUGGAUAGGUGA [IX]
**A:** 0.418

* * *

test system: K4 kissing-loop RNA reporter; test: apparent KD of K4 kissing-loop reporter; higher = weaker reporter binding; conditions: Eterna round: R107; input ligand: arginine 13.2 mM;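 also: bound reporter read as fluorescence of individual clusters on recovered sequencing chips by microscopy, with normalized cluster intensities fitted with a binding model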
assay_readout: apparent KD of K4 kissing-loop reporter (nM)
Please reply with the bare figure in nM and do not write the unit itself.

Some entries whose results are on file:
seq	recorded_value
GCCGUACGCAUGGAUACCAGCAACCCUGCCAUCCCAGUGAUGUUGGGAGGAACAUUCUCAUGCCCUUGGCAGCCAUGCGUACGGC	358
UUGGAGUGAUGUUCCAUAUCUUGAGCGGAAGGAGCGGCAAAAGUGCCAGGUAGGUCGCCGCAGAAGGUACCAGUGAUGUUGGAAA [Same State Arginine A GF 3]	152

Kindly consider the entry below.
**Q:** Bench note: what apparent KD of K4 kissing-loop reporter did AAGUCAUAUAGAAGGAGCGUGUUUUUUAAUUUGUUUUCAUGAUCGAGUGAUGUUCGAUAUACACAGGUAGGUCGCUGUAUGAUAA [hbob_SS_Arginine_B_2t143] show?
**A:** 146
